- experimentNotes: AUC in portal vein catheter of Sprague-Dawley rat at 10 mg/kg, po
- Assay type: ADME, organism-based
- Set-up: dose 10 mg/kg, route oral
- conditionParameters: plasma
# reported AUC; entries follow
# unit: µM·h | format: bare number

CCCCCC(=O)NCc1ccc(O)c(-c2cccc(-c3cc4cc(C(=N)NO)ccc4[nH]3)c2O)c1 = 2.03

# context switch: different compound, same AUC
Provide one value: measured AUC of CCCCCC(=O)NCc1ccc(O)c(-c2cccc(-c3cc4cc(C(=N)N)ccc4[nH]3)c2O)c1
0.0147

----------
# reported half-life; entries follow
- experimentNotes: Terminal half life in portal vein catheter of Sprague-Dawley rat at 10 mg/kg, po
- Format: ADME, organism-based
- Design: dose 10 mg/kg, route oral
- conditionParameters: in vivo
Note to self: number, then unit, no commentary.

CCCCCC(=O)NCc1ccc(O)c(-c2cccc(-c3cc4cc(C(=N)N)ccc4[nH]3)c2O)c1 = 26 min

# context switch: different compound, same half-life
Provide one value: measured half-life of CCCCCC(=O)NCc1ccc(O)c(-c2cccc(-c3cc4cc(C(=N)NO)ccc4[nH]3)c2O)c1
49 min
